Provenance of the data: patent US20250042994A1

tgt: T1, human CD19 on Raji cells (human, UniProt P15391 20-556)
T1 construct: whole, on cells
T1 sequence (looked up): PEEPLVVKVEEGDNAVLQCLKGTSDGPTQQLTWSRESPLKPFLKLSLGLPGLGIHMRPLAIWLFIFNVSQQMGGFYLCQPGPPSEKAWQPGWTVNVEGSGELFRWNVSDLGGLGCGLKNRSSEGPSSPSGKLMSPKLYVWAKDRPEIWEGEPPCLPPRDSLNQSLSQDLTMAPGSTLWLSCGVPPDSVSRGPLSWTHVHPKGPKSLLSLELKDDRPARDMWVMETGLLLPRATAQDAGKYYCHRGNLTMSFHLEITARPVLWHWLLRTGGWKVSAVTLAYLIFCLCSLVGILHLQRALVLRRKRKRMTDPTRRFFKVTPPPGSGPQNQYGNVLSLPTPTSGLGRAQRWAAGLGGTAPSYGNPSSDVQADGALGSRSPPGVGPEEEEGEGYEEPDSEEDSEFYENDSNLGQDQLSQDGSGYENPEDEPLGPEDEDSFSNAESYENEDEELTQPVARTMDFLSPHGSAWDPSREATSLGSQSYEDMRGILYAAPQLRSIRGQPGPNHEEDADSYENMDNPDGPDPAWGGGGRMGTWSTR
assay.explanation: FACS on Raji cells
measurement.name: Maximum mean fluorescence intensity
API doc: respond with a numeric literal and nothing else, no unit.

F3.124.7 (antibody, human IgG1, V domains shown, human-murine chimeric antibody, human IgG1) VH: EVQLQQSGPVLVKPGASVKMSCKASGYTFTDYYMNWVKQRHGKSLEWIGISNPYNGGTSYNQKFKDKATLTVDKSSSTAYMELNSLTSEDSAVYYCAREGGTAQPTSGMDYWGQGTSVTVSS VL: NIMMTQSPSSLAVSAGEKVTMSCKSSQSVLYSSNQKNYLAWYQQKPGQSPKLLIYWASTRESGVPDRFTGSGSGTDFTLTISSVQPEDPAVYYCHQYRSSYTFGGGTKLEIK: 19100

// switching to the query binder
Any idea what its Maximum mean fluorescence intensity is? The binder is F4.145.9 (antibody, human IgG1, V domains shown, human-murine chimeric antibody, human IgG1) VH: EVQLVESGGGLVKPGGSLKLSCAAAGFAFSSYDMSWVRQIPEKRLEWVAYISAGGGNTYFLDTVKGRFTISRDHAKNTLSLQMSSLKSEDTAMYFCVRHGDYYRYFYAMDYWGQGSSVTVSS VL: DIVMTQSHKFMSTSVGDRVSITCKASQDVGTAVAWSQQKPGQSPKLLIYWASTRHTGVPDRFTGSGSGTDFTLTISNVQSEDLADYFCQQFVTYPYTFGGGTKLEIK
20000
